# target: T1, AFP158/HLA-A*02:01 complex (human)
# T1 construct: flowed over the chip in SPR; also called AFP158 pro
# assay procedure: SPR, scFv captured, pMHC in flow;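 also: complex injected at several concentrations over crude scFv, association then running-buffer dissociation, KD estimated from kinetic on- and off-rate constants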
The entries below are paired with their reported pKd.
pKd field: float, defined as -log10 of concentration (mol/L).

Query: Could you share which pKd value was measured for LD97A (scFv, AS170036 VL1VH1 scFv mutein) scFv: QSALTQPRSVSGSPGQSVTISCAGTSSDVGSENYVSWYQQHPGKAPKLMIYQVNKRASGVPDRFSGSKSGNTASLTISGLQAEDEADYYCASYRSSAHNIVFGGGTKLTVLGGGGSGGGGSGGGGSEVQLVESGGGLVQPGGSLRLSCAASGFTFSSYAMSWVRQAPGKGLEWVSTINSGTGSPYYADSVKGRFTISRDNSKNTLYLQMNSLRAEDTAVYYCAKNFFDGSWFLGPPAMDYWGQGTLVTVSSHHHHHH ?
Reply: 6.33

Query: # iterate: LY34H (scFv, AS170036 VL1VH1 scFv mutein) scFv: QSALTQPRSVSGSPGQSVTISCAGTSSDVGSENHVSWYQQHPGKAPKLMIYQVNKRASGVPDRFSGSKSGNTASLTISGLQAEDEADYYCASYRSSDHNIVFGGGTKLTVLGGGGSGGGGSGGGGSEVQLVESGGGLVQPGGSLRLSCAASGFTFSSYAMSWVRQAPGKGLEWVSTINSGTGSPYYADSVKGRFTISRDNSKNTLYLQMNSLRAEDTAVYYCAKNFFDGSWFLGPPAMDYWGQGTLVTVSSHHHHHH
Reply: 6.27

Query: # iterate: LH98Y (scFv, AS170036 VL1VH1 scFv mutein) scFv: QSALTQPRSVSGSPGQSVTISCAGTSSDVGSENYVSWYQQHPGKAPKLMIYQVNKRASGVPDRFSGSKSGNTASLTISGLQAEDEADYYCASYRSSDYNIVFGGGTKLTVLGGGGSGGGGSGGGGSEVQLVESGGGLVQPGGSLRLSCAASGFTFSSYAMSWVRQAPGKGLEWVSTINSGTGSPYYADSVKGRFTISRDNSKNTLYLQMNSLRAEDTAVYYCAKNFFDGSWFLGPPAMDYWGQGTLVTVSSHHHHHH
Reply: 6.80

Query: # iterate: LD97F (scFv, AS170036 VL1VH1 scFv mutein) scFv: QSALTQPRSVSGSPGQSVTISCAGTSSDVGSENYVSWYQQHPGKAPKLMIYQVNKRASGVPDRFSGSKSGNTASLTISGLQAEDEADYYCASYRSSFHNIVFGGGTKLTVLGGGGSGGGGSGGGGSEVQLVESGGGLVQPGGSLRLSCAASGFTFSSYAMSWVRQAPGKGLEWVSTINSGTGSPYYADSVKGRFTISRDNSKNTLYLQMNSLRAEDTAVYYCAKNFFDGSWFLGPPAMDYWGQGTLVTVSSHHHHHH
Reply: 6.35

Query: # iterate: LY93Q (scFv, AS170036 VL1VH1 scFv mutein) scFv: QSALTQPRSVSGSPGQSVTISCAGTSSDVGSENYVSWYQQHPGKAPKLMIYQVNKRASGVPDRFSGSKSGNTASLTISGLQAEDEADYYCASQRSSDHNIVFGGGTKLTVLGGGGSGGGGSGGGGSEVQLVESGGGLVQPGGSLRLSCAASGFTFSSYAMSWVRQAPGKGLEWVSTINSGTGSPYYADSVKGRFTISRDNSKNTLYLQMNSLRAEDTAVYYCAKNFFDGSWFLGPPAMDYWGQGTLVTVSSHHHHHH
Reply: 6.42

Query: # iterate: LH98I (scFv, AS170036 VL1VH1 scFv mutein; also called AS170036 VL1VH1-VLH98I) scFv: QSALTQPRSVSGSPGQSVTISCAGTSSDVGSENYVSWYQQHPGKAPKLMIYQVNKRASGVPDRFSGSKSGNTASLTISGLQAEDEADYYCASYRSSDINIVFGGGTKLTVLGGGGSGGGGSGGGGSEVQLVESGGGLVQPGGSLRLSCAASGFTFSSYAMSWVRQAPGKGLEWVSTINSGTGSPYYADSVKGRFTISRDNSKNTLYLQMNSLRAEDTAVYYCAKNFFDGSWFLGPPAMDYWGQGTLVTVSSHHHHHH
Reply: 7.11

Query: # iterate: LH98S (scFv, AS170036 VL1VH1 scFv mutein) scFv: QSALTQPRSVSGSPGQSVTISCAGTSSDVGSENYVSWYQQHPGKAPKLMIYQVNKRASGVPDRFSGSKSGNTASLTISGLQAEDEADYYCASYRSSDSNIVFGGGTKLTVLGGGGSGGGGSGGGGSEVQLVESGGGLVQPGGSLRLSCAASGFTFSSYAMSWVRQAPGKGLEWVSTINSGTGSPYYADSVKGRFTISRDNSKNTLYLQMNSLRAEDTAVYYCAKNFFDGSWFLGPPAMDYWGQGTLVTVSSHHHHHH
Reply: 6.74

Query: # iterate: LE32G (scFv, AS170036 VL1VH1 scFv mutein) scFv: QSALTQPRSVSGSPGQSVTISCAGTSSDVGSGNYVSWYQQHPGKAPKLMIYQVNKRASGVPDRFSGSKSGNTASLTISGLQAEDEADYYCASYRSSDHNIVFGGGTKLTVLGGGGSGGGGSGGGGSEVQLVESGGGLVQPGGSLRLSCAASGFTFSSYAMSWVRQAPGKGLEWVSTINSGTGSPYYADSVKGRFTISRDNSKNTLYLQMNSLRAEDTAVYYCAKNFFDGSWFLGPPAMDYWGQGTLVTVSSHHHHHH
Reply: 6.46

Consider now this further binder.
Query: Could you share which pKd value was measured for LH98P (scFv, AS170036 VL1VH1 scFv mutein; also called AS170036 VL1VH1-VLH98P) scFv: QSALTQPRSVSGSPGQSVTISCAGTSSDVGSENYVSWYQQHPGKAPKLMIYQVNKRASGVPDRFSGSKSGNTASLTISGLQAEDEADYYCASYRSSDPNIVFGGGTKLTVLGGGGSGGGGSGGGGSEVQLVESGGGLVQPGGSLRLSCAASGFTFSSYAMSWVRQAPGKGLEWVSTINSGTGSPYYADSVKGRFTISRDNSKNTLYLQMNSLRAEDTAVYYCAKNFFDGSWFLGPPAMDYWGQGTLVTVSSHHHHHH ?
Reply: 7.15
